The entries below come with measured phage ELISA signal ratio values attached.
assay_target: DOK4 130-237 IRS (domain begin residue: 130, domain end residue: 237), Q8TEW6
Sequence (Q8TEW6 whole entry): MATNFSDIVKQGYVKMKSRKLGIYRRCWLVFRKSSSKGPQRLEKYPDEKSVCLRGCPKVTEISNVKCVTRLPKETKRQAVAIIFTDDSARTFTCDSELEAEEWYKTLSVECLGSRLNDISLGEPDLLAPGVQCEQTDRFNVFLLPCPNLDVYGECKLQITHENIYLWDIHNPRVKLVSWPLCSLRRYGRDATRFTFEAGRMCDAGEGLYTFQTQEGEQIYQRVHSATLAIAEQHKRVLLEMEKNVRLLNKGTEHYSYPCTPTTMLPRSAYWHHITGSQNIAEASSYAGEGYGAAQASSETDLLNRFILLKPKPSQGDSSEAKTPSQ
protocol_summary: phage ELISA signal ratio (GST-PRM binding over GST background); higher = stronger binding of peptide-phage to the PRM
Reply with just the number.

Example entries begin here.
             binder  test_value
0  EHLRPEMDWTYVWWEH        4.35
1  MWEWTDNPSYTIPGQQ        7.86
2  FEWTSSPVWSDHQEHN        11.5
3  GWDDQIWTWSPMYMPV          19
4  VIWTWNPMAGMEAWNI        5.11
5  YELSWTHTPWSHFIAT        6.86
6  PEQMEYWTWSPLHVSQ        13.1

Turning now to a further binder:
Q: I have this binder here, "WPEGIKYTWVKEHETE" , and I need its recorded phage ELISA signal ratio.
Result: 8.42

Cited source: the supplement of paper PMC7724964
